Test system: U937 cell line
measurement-protocol: MTT assay, toxicity (cell viability), U937
Assay type: cell-based
condition-context: U937, 48 h, 1 μM
quantity-measured: % Cell viability

compound | % Cell viability
COc1ccccc1CCN(CC(N)=O)C(=O)C1CC(=O)N(CCc2ccc(Cl)cc2Cl)CC(=O)N1CCC(c1ccccc1)c1ccccc1 (stereo not drawn) | 100%
CCCCN(CC(N)=O)C(=O)C1CC(=O)N(CCc2ccc(Cl)cc2Cl)CC(=O)N1CCC(c1ccccc1)c1ccccc1 (stereo not drawn) | 98%
NC(=O)CN(C(=O)C1CC(=O)N(CCc2ccc(Cl)cc2Cl)CC(=O)N1CCC(c1ccccc1)c1ccccc1)C1CC1 (stereo not drawn) | 100%
NC(=O)CN(CCc1ccc(Cl)cc1Cl)C(=O)C1CC(=O)N(CCc2ccc(Cl)cc2Cl)CC(=O)N1CCC(c1ccccc1)c1ccccc1 (stereo not drawn) | 100%
NC(=O)CN(CCc1ccc(F)cc1)C(=O)C1CC(=O)N(CCc2ccc(Cl)cc2Cl)CC(=O)N1CCC(c1ccccc1)c1ccccc1 (stereo not drawn) | 100%

Query: Which % Cell viability value belongs to NC(=O)CN(CCc1ccc(Cl)cc1)C(=O)C1CC(=O)N(CCc2ccc(Cl)cc2Cl)CC(=O)N1CCC(c1ccccc1)c1ccccc1 (stereo not drawn) ?
Response: 100%

Query: Which % Cell viability value belongs to CC(=O)NCCNC(=O)CNC(=O)C1CC(=O)N(CCc2ccc(Cl)cc2Cl)CC(=O)N1CCC(c1ccccc1)c1ccccc1 (stereo not drawn) ?
Response: 100%

Query: Which % Cell viability value belongs to NC(=O)CN(CCc1ccccc1F)C(=O)C1CC(=O)N(CCc2ccc(Cl)cc2Cl)CC(=O)N1CCC(c1ccccc1)c1ccccc1 (stereo not drawn) ?
Response: 93%

Query: Which % Cell viability value belongs to NC(=O)CN(CC1CCCO1)C(=O)C1CC(=O)N(CCc2ccc(Cl)cc2Cl)CC(=O)N1CCC(c1ccccc1)c1ccccc1 (stereo not drawn) ?
Response: 99%

====

Tested on: Saos-2 cell line
measurement-protocol: MTT assay, toxicity (cell viability), Saos-2
Format: cell-based
condition-context: Saos-2, 48 h, 5 μM
Measured % Cell viability of individual entries

Query: # query: % Cell viability | item NCCCCC(NC(=O)CN(CCc1ccc(Cl)cc1Cl)C(=O)C1CC(=O)N(CCc2ccc(Cl)cc2Cl)CC(=O)N1CCC(c1ccccc1)c1ccccc1)C(N)=O (stereo not drawn) | system: Saos-2 cell line
Response: 97%

Query: # query: % Cell viability | item CCCCN(CC(N)=O)C(=O)C1CC(=O)N(CCc2ccc(Cl)cc2Cl)CC(=O)N1CCC(c1ccccc1)c1ccccc1 (stereo not drawn) | system: Saos-2 cell line
Response: 91%

Query: # query: % Cell viability | item NC(=O)CN(C(=O)C1CC(=O)N(CCc2ccc(Cl)cc2Cl)CC(=O)N1CCC(c1ccccc1)c1ccccc1)C1CC1 (stereo not drawn) | system: Saos-2 cell line
Response: 100%

Query: # query: % Cell viability | item COc1ccccc1CCN(CC(N)=O)C(=O)C1CC(=O)N(CCc2ccc(Cl)cc2Cl)CC(=O)N1CCC(c1ccccc1)c1ccccc1 (stereo not drawn) | system: Saos-2 cell line
Response: 100%

Query: # query: % Cell viability | item NC(=O)CN(CCc1ccc(Cl)cc1)C(=O)C1CC(=O)N(CCc2ccc(Cl)cc2Cl)CC(=O)N1CCC(c1ccccc1)c1ccccc1 (stereo not drawn) | system: Saos-2 cell line
Response: 100%

Query: # query: % Cell viability | item NC(=O)CN(CCc1ccc(F)cc1)C(=O)C1CC(=O)N(CCc2ccc(Cl)cc2Cl)CC(=O)N1CCC(c1ccccc1)c1ccccc1 (stereo not drawn) | system: Saos-2 cell line
Response: 100%

Query: # query: % Cell viability | item NC(=O)CN(CC1CCCO1)C(=O)C1CC(=O)N(CCc2ccc(Cl)cc2Cl)CC(=O)N1CCC(c1ccccc1)c1ccccc1 (stereo not drawn) | system: Saos-2 cell line
Response: 98%

Query: # query: % Cell viability | item CC(=O)NCCNC(=O)CNC(=O)C1CC(=O)N(CCc2ccc(Cl)cc2Cl)CC(=O)N1CCC(c1ccccc1)c1ccccc1 (stereo not drawn) | system: Saos-2 cell line
Response: 100%

Query: # query: % Cell viability | item NC(=O)CN(CCc1ccccc1F)C(=O)C1CC(=O)N(CCc2ccc(Cl)cc2Cl)CC(=O)N1CCC(c1ccccc1)c1ccccc1 (stereo not drawn) | system: Saos-2 cell line
Response: 76%

====

Tested on: Caspase activity, U937 cell extracts
measurement-protocol: Caspase inhibition assay, U937 cell extracts
Assay type: cell-based
condition-context: Homo sapiens, U-937; U937, 24 h, 5 μM
Measured inhibition at 5 µM of individual entries
Write the value in % as a bare number.

compound | inhibition at 5 µM [%]
NC(=O)CN(C(=O)C1CC(=O)N(CCc2ccc(Cl)cc2Cl)CC(=O)N1CCC(c1ccccc1)c1ccccc1)C1CC1 (centres unmarked) | 0

Query: # query: inhibition at 5 µM | item CC(=O)NCCNC(=O)CNC(=O)C1CC(=O)N(CCc2ccc(Cl)cc2Cl)CC(=O)N1CCC(c1ccccc1)c1ccccc1 (centres unmarked) | system: Caspase activity, U937 cell extracts
Response: 12

Query: # query: inhibition at 5 µM | item CCCCN(CC(N)=O)C(=O)C1CC(=O)N(CCc2ccc(Cl)cc2Cl)CC(=O)N1CCC(c1ccccc1)c1ccccc1 (centres unmarked) | system: Caspase activity, U937 cell extracts
Response: 11

Query: # query: inhibition at 5 µM | item NCCCCC(NC(=O)CN(CCc1ccc(Cl)cc1Cl)C(=O)C1CC(=O)N(CCc2ccc(Cl)cc2Cl)CC(=O)N1CCC(c1ccccc1)c1ccccc1)C(N)=O (centres unmarked) | system: Caspase activity, U937 cell extracts
Response: 23

Query: # query: inhibition at 5 µM | item NC(=O)CN(CCc1ccc(F)cc1)C(=O)C1CC(=O)N(CCc2ccc(Cl)cc2Cl)CC(=O)N1CCC(c1ccccc1)c1ccccc1 (centres unmarked) | system: Caspase activity, U937 cell extracts
Response: 0

Query: # query: inhibition at 5 µM | item NC(=O)CN(CCc1ccc(Cl)cc1)C(=O)C1CC(=O)N(CCc2ccc(Cl)cc2Cl)CC(=O)N1CCC(c1ccccc1)c1ccccc1 (centres unmarked) | system: Caspase activity, U937 cell extracts
Response: 5

Query: # query: inhibition at 5 µM | item NC(=O)CN(CCc1ccccc1F)C(=O)C1CC(=O)N(CCc2ccc(Cl)cc2Cl)CC(=O)N1CCC(c1ccccc1)c1ccccc1 (centres unmarked) | system: Caspase activity, U937 cell extracts
Response: 3

Query: # query: inhibition at 5 µM | item NC(=O)CN(CCc1ccc(Cl)cc1Cl)C(=O)C1CC(=O)N(CCc2ccc(Cl)cc2Cl)CC(=O)N1CCC(c1ccccc1)c1ccccc1 (centres unmarked) | system: Caspase activity, U937 cell extracts
Response: 19

====

Measured % Cell viability of individual entries
System: Saos-2 cell line
measurement-protocol: MTT assay, toxicity (cell viability), Saos-2
Assay type: cell-based
condition-context: Saos-2, 48 h, 10 μM

Recorded % Cell viability, per entry:
compound | % Cell viability
COc1ccccc1CCN(CC(N)=O)C(=O)C1CC(=O)N(CCc2ccc(Cl)cc2Cl)CC(=O)N1CCC(c1ccccc1)c1ccccc1 (stereo not drawn) | 100%
NC(=O)CN(CC1CCCO1)C(=O)C1CC(=O)N(CCc2ccc(Cl)cc2Cl)CC(=O)N1CCC(c1ccccc1)c1ccccc1 (stereo not drawn) | 99%
NCCCCC(NC(=O)CN(CCc1ccc(Cl)cc1Cl)C(=O)C1CC(=O)N(CCc2ccc(Cl)cc2Cl)CC(=O)N1CCC(c1ccccc1)c1ccccc1)C(N)=O (stereo not drawn) | 98%
NC(=O)CN(CCc1ccccc1F)C(=O)C1CC(=O)N(CCc2ccc(Cl)cc2Cl)CC(=O)N1CCC(c1ccccc1)c1ccccc1 (stereo not drawn) | 66%
NC(=O)CN(CCc1ccc(F)cc1)C(=O)C1CC(=O)N(CCc2ccc(Cl)cc2Cl)CC(=O)N1CCC(c1ccccc1)c1ccccc1 (stereo not drawn) | 100%

Query: # query: % Cell viability | item CC(=O)NCCNC(=O)CNC(=O)C1CC(=O)N(CCc2ccc(Cl)cc2Cl)CC(=O)N1CCC(c1ccccc1)c1ccccc1 (stereo not drawn) | system: Saos-2 cell line
Response: 100%

Query: # query: % Cell viability | item NC(=O)CN(CCc1ccc(Cl)cc1)C(=O)C1CC(=O)N(CCc2ccc(Cl)cc2Cl)CC(=O)N1CCC(c1ccccc1)c1ccccc1 (stereo not drawn) | system: Saos-2 cell line
Response: 100%

Query: # query: % Cell viability | item CCCCN(CC(N)=O)C(=O)C1CC(=O)N(CCc2ccc(Cl)cc2Cl)CC(=O)N1CCC(c1ccccc1)c1ccccc1 (stereo not drawn) | system: Saos-2 cell line
Response: 74%

Query: # query: % Cell viability | item NC(=O)CN(C(=O)C1CC(=O)N(CCc2ccc(Cl)cc2Cl)CC(=O)N1CCC(c1ccccc1)c1ccccc1)C1CC1 (stereo not drawn) | system: Saos-2 cell line
Response: 91%
